Reported self-splicing fitness (ln) values for the following sequences.
Protocol Details: self-splicing fitness, log relative to wild type (ln ratio); higher = more splicing; Tetrahymena group I intron in knt gene, E. coli kanamycin selection, DiMSum; sequences stand for … in CUCUCU…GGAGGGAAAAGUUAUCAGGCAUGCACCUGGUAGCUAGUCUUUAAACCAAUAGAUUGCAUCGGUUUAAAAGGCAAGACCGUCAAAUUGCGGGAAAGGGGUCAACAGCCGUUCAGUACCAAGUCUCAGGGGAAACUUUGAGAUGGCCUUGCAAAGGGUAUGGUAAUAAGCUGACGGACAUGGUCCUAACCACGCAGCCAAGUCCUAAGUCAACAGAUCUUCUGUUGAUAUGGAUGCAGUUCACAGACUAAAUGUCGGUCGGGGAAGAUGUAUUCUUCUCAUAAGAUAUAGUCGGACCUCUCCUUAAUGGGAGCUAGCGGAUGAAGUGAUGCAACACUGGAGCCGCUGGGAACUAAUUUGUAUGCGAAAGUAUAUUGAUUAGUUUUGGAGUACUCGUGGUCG;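 further: selection with 25 µg/mL kanamycin versus none on LB agar overnight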
Protocol Conditions: 37 °C

Field: example entries. Status: answers known.
AGAUAGCAAUAUUACGCGCA	-0.129
GACUAGCAAUAUUACGGUAU	-0.543

Name the recorded self-splicing fitness (ln) for UCGCAGCAAUAUUACGGCAC .
-2.67

Name the recorded self-splicing fitness (ln) for AUUUAGCAAUAUUACGUCAC .
-1.42
